# experimental-system: human Y2 receptor (Homo sapiens, UniProt P49146)
# Construct: expressed in transfected cells; membrane fraction
# Sequence (P49146 1-381): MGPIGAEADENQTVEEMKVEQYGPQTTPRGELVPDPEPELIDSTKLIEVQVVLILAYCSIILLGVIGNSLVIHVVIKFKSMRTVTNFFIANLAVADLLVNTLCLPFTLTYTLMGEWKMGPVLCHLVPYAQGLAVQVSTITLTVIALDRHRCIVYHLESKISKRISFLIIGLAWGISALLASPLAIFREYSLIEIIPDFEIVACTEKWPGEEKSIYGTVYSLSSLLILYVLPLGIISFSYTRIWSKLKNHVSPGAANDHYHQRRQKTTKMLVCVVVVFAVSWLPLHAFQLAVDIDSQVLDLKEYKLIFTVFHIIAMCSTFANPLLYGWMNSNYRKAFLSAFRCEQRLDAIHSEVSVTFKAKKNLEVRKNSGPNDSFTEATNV
# method-description: Human Y2 Receptor G Protein Binding Assay (GBA), [35S]GTPγS
# Format: biochemical
# condition-parameters: EC50 of test compound/EC50 of PYY(3-36) (PYY3-36 taken as 1), hY2R/CHO membrane fraction
Non-standard residues stand in square brackets, D forms with d. *: point of attachment. Cha = N[C@@H](CC1CCCCC1)C(=O)O; Isobutyryl = CC(C)C(=O)*; Abu = CC[C@H](N)C(=O)O; Aib = CC(C)(N)C(=O)O
Here, each record is paired with measured GBA EC50 Ratio data.
// no unit string in output, number only

Documented GBA EC50 Ratio of Isobutanoyl-[Abu26, Cha27,36, Gln28, Aib31]-PYY(25-36) (Isobutyryl-R[Abu][Cha]QNL[Aib]TRQR[Cha]-NH2; SMILES CC[C@H](NC(=O)[C@H](CCCNC(=N)N)NC(=O)C(C)C)C(=O)N[C@@H](CC1CCCCC1)C(=O)N[C@@H](CCC(N)=O)C(=O)N[C@@H](CC(N)=O)C(=O)N[C@@H](CC(C)C)C(=O)NC(C)(C)C(=O)N[C@H](C(=O)N[C@@H](CCCNC(=N)N)C(=O)N[C@@H](CCC(N)=O)C(=O)N[C@@H](CCCNC(=N)N)C(=O)N[C@@H](CC1CCCCC1)C(N)=O)[C@@H](C)O) [compound No. 100] : 30

***
Entry Isobutanoyl-[Abu26, Cha27,36, His28, Aib31]-PYY(25-36) (Isobutyryl-R[Abu][Cha]HNL[Aib]TRQR[Cha]-NH2; SMILES CC[C@H](NC(=O)[C@H](CCCNC(=N)N)NC(=O)C(C)C)C(=O)N[C@@H](CC1CCCCC1)C(=O)N[C@@H](Cc1c[nH]cn1)C(=O)N[C@@H](CC(N)=O)C(=O)N[C@@H](CC(C)C)C(=O)NC(C)(C)C(=O)N[C@H](C(=O)N[C@@H](CCCNC(=N)N)C(=O)N[C@@H](CCC(N)=O)C(=O)N[C@@H](CCCNC(=N)N)C(=O)N[C@@H](CC1CCCCC1)C(N)=O)[C@@H](C)O) [compound No. 101] — recorded GBA EC50 Ratio = 13

====

# experimental-system: human Y2 receptor (Homo sapiens, UniProt P49146)
# Construct: expressed in transfected cells; membrane fraction
# Sequence (P49146 1-381): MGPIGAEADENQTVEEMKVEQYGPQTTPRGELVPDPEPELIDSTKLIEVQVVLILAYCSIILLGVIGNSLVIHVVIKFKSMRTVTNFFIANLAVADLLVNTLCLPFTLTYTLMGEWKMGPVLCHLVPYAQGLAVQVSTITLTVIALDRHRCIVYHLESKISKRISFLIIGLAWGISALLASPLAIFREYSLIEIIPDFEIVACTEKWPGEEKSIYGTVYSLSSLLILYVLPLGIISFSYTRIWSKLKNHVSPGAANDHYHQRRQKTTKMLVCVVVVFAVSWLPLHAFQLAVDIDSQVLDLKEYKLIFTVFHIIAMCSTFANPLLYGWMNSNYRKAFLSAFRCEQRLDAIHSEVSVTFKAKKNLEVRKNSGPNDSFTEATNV
# method-description: Receptor Binding Assay (RBA) for Human Y2, [125I]-PYY displacement on hY2R/CHO membrane fraction
# condition-parameters: IC50 of test compound/IC50 of PYY(3-36) (PYY(3-36) taken as 1)
Non-standard residues stand in square brackets, D forms with d. *: point of attachment. Cha = N[C@@H](CC1CCCCC1)C(=O)O; Nva = CCC[C@H](N)C(=O)O; Aib = CC(C)(N)C(=O)O; Bz = O=C(c1ccccc1)*
experimental-endpoint: RBA IC50 Ratio

Briefly, RBA IC50 Ratio measured for Benzoyl-[Nva27, Cha28,36, Aib31]-PYY(25-36) (Bz-RH[Nva][Cha]NL[Aib]TRQR[Cha]-NH2; SMILES CCC[C@H](NC(=O)[C@H](Cc1c[nH]cn1)NC(=O)[C@H](CCCNC(=N)N)NC(=O)c1ccccc1)C(=O)N[C@@H](CC1CCCCC1)C(=O)N[C@@H](CC(N)=O)C(=O)N[C@@H](CC(C)C)C(=O)NC(C)(C)C(=O)N[C@H](C(=O)N[C@@H](CCCNC(=N)N)C(=O)N[C@@H](CCC(N)=O)C(=O)N[C@@H](CCCNC(=N)N)C(=O)N[C@@H](CC1CCCCC1)C(N)=O)[C@@H](C)O) [compound No. 103] : 13
